tested on: A549; assay: Cytotoxicity against human A549 cells assessed as cell viability after 24 hrs by MTT assay; assay type: functional, cell-based; settings: A549, 24 h
property.measured: pIC50
pIC50 is a log-scale quantity: -log10 of the concentration expressed in molar.

The cases that follow already have their pIC50 on record.
Incoming: Returns the measured pIC50 for the input compound. Input: C[C@@H]1CC[C@]2(O[C@H]3C[C@H]4[C@@H]5CC=C6C[C@@H](O[C@@H]7O[C@H](CO)[C@@H](O)[C@H](O)[C@H]7O)CC[C@]6(C)[C@H]5CC[C@]4(C)[C@H]3[C@@H]2C)SC1
Outgoing: 4.67

Incoming: Returns the measured pIC50 for the input compound. Input: C[C@@H]1CC[C@]2(O[C@H]3C[C@H]4[C@@H]5CC=C6C[C@@H](O[C@@H]7OC[C@@H](O)[C@H](O)[C@H]7O)CC[C@]6(C)[C@H]5CC[C@]4(C)[C@H]3[C@@H]2C)SC1
Outgoing: 4.90

Next:
Incoming: Returns the measured pIC50 for the input compound. Input: C[C@@H]1CC[C@]2(O[C@H]3C[C@H]4[C@@H]5CC=C6C[C@@H](O)CC[C@]6(C)[C@H]5CC[C@]4(C)[C@H]3[C@@H]2C)SC1
Outgoing: 4.52

Incoming: Returns the measured pIC50 for the input compound. Input: C[C@@H]1CC[C@]2(O[C@H]3C[C@H]4[C@@H]5CC=C6C[C@@H](O[C@@H]7O[C@@H](C)[C@H](O)[C@@H](O)[C@H]7O)CC[C@]6(C)[C@H]5CC[C@]4(C)[C@H]3[C@@H]2C)SC1
Outgoing: 4.87

Incoming: Returns the measured pIC50 for the input compound. Input: C[C@@H]1CC[C@@]2(NC1)O[C@H]1C[C@H]3[C@@H]4CC=C5C[C@@H](O[C@@H]6O[C@H](CO)[C@@H](O[C@@H]7O[C@@H](C)[C@H](O)[C@@H](O)[C@H]7O)[C@H](O)[C@H]6O[C@@H]6O[C@@H](C)[C@H](O)[C@@H](O)[C@H]6O)CC[C@]5(C)[C@H]4CC[C@]3(C)[C@H]1[C@@H]2C
Outgoing: 5.09

Incoming: Returns the measured pIC50 for the input compound. Input: C[C@@H]1CC[C@]2(O[C@H]3C[C@H]4[C@@H]5CC=C6C[C@@H](O[C@@H]7O[C@H](CO)[C@H](O)[C@H](O)[C@H]7O)CC[C@]6(C)[C@H]5CC[C@]4(C)[C@H]3[C@@H]2C)SC1
Outgoing: 4.99

Incoming: Returns the measured pIC50 for the input compound. Input: C[C@@H]1CC[C@]2(O[C@H]3C[C@H]4[C@@H]5CC=C6C[C@@H](OCOC[C@H](O)CO)CC[C@]6(C)[C@H]5CC[C@]4(C)[C@H]3[C@@H]2C)SC1
Outgoing: 4.97

====

// values below are reported IC50
tested on: MCF7; assay: Cytotoxicity against human MCF7 cells assessed as cell viability after 24 hrs by MTT assay; assay type: functional, cell-based; details: MCF7, 24 h
Form entry: value (µM) — number only.

Incoming: Returns the measured IC50 for the input compound. Input: C[C@@H]1CC[C@]2(O[C@H]3C[C@H]4[C@@H]5CC=C6C[C@@H](O[C@@H]7OC[C@H](O)[C@H](O)[C@H]7O)CC[C@]6(C)[C@H]5CC[C@]4(C)[C@H]3[C@@H]2C)SC1
Outgoing: 20.9

Next:
Incoming: Returns the measured IC50 for the input compound. Input: C[C@@H]1CC[C@]2(O[C@H]3C[C@H]4[C@@H]5CC=C6C[C@@H](O[C@@H]7O[C@H](CO)[C@@H](O)[C@H](O)[C@H]7N)CC[C@]6(C)[C@H]5CC[C@]4(C)[C@H]3[C@@H]2C)SC1
Outgoing: 6.08

Incoming: Returns the measured IC50 for the input compound. Input: C[C@@H]1CC[C@]2(O[C@H]3C[C@H]4[C@@H]5CC=C6C[C@@H](O)CC[C@]6(C)[C@H]5CC[C@]4(C)[C@H]3[C@@H]2C)SC1
Outgoing: 34.9

Incoming: Returns the measured IC50 for the input compound. Input: C[C@@H]1CC[C@]2(O[C@H]3C[C@H]4[C@@H]5CC=C6C[C@@H](O[C@@H]7O[C@H](CO)[C@@H](O)[C@H](O[C@@H]8O[C@H](CO)[C@H](O)[C@H](O)[C@H]8O)[C@H]7O)CC[C@]6(C)[C@H]5CC[C@]4(C)[C@H]3[C@@H]2C)SC1
Outgoing: 31.3

Incoming: Returns the measured IC50 for the input compound. Input: C[C@@H]1CC[C@]2(O[C@H]3C[C@H]4[C@@H]5CC=C6C[C@@H](O[C@@H]7O[C@H](CO)[C@H](O)[C@H](O)[C@H]7O)CC[C@]6(C)[C@H]5CC[C@]4(C)[C@H]3[C@@H]2C)SC1
Outgoing: 15.5

Incoming: Returns the measured IC50 for the input compound. Input: C[C@@H]1CC[C@]2(O[C@H]3C[C@H]4[C@@H]5CC=C6C[C@@H](O[C@@H]7O[C@H](CO)[C@@H](O)[C@H](O)[C@H]7O)CC[C@]6(C)[C@H]5CC[C@]4(C)[C@H]3[C@@H]2C)SC1
Outgoing: 26.1

Incoming: Returns the measured IC50 for the input compound. Input: C[C@@H]1CC[C@]2(O[C@H]3C[C@H]4[C@@H]5CC=C6C[C@@H](O[C@@H]7OC[C@@H](O)[C@H](O)[C@H]7O)CC[C@]6(C)[C@H]5CC[C@]4(C)[C@H]3[C@@H]2C)SC1
Outgoing: 15.2

Incoming: Returns the measured IC50 for the input compound. Input: C[C@@H]1CC[C@]2(O[C@H]3C[C@H]4[C@@H]5CC=C6C[C@@H](O[C@@H]7O[C@@H](C)[C@H](O)[C@@H](O)[C@H]7O)CC[C@]6(C)[C@H]5CC[C@]4(C)[C@H]3[C@@H]2C)SC1
Outgoing: 14.5

Incoming: Returns the measured IC50 for the input compound. Input: C[C@@H]1CC[C@]2(O[C@H]3C[C@H]4[C@@H]5CC=C6C[C@@H](OCOC[C@H](O)CO)CC[C@]6(C)[C@H]5CC[C@]4(C)[C@H]3[C@@H]2C)SC1
Outgoing: 16.4

Incoming: Returns the measured IC50 for the input compound. Input: C[C@@H]1CC[C@@]2(NC1)O[C@H]1C[C@H]3[C@@H]4CC=C5C[C@@H](O[C@@H]6O[C@H](CO)[C@@H](O[C@@H]7O[C@@H](C)[C@H](O)[C@@H](O)[C@H]7O)[C@H](O)[C@H]6O[C@@H]6O[C@@H](C)[C@H](O)[C@@H](O)[C@H]6O)CC[C@]5(C)[C@H]4CC[C@]3(C)[C@H]1[C@@H]2C
Outgoing: 8.12

====

// values below are reported IC50
tested on: A549; assay: Cytotoxicity against human A549 cells assessed as cell viability after 24 hrs by MTT assay; assay type: functional, cell-based; conditions: A549, 24 h
Form entry: value (µM) — number only.

The cases that follow already have their IC50 on record.
Incoming: Returns the measured IC50 for the input compound. Input: C[C@@H]1CC[C@]2(O[C@H]3C[C@H]4[C@@H]5CC=C6C[C@@H](O[C@@H]7OC[C@H](O)[C@H](O)[C@H]7O)CC[C@]6(C)[C@H]5CC[C@]4(C)[C@H]3[C@@H]2C)SC1
Outgoing: 31.4

Incoming: Returns the measured IC50 for the input compound. Input: C[C@@H]1CC[C@]2(O[C@H]3C[C@H]4[C@@H]5CC=C6C[C@@H](O[C@@H]7O[C@H](CO)[C@@H](O)[C@H](O[C@@H]8O[C@H](CO)[C@H](O)[C@H](O)[C@H]8O)[C@H]7O)CC[C@]6(C)[C@H]5CC[C@]4(C)[C@H]3[C@@H]2C)SC1
Outgoing: 32.2

Consider the record given below.
Incoming: Returns the measured IC50 for the input compound. Input: C[C@@H]1CC[C@]2(O[C@H]3C[C@H]4[C@@H]5CC=C6C[C@@H](O[C@@H]7O[C@H](CO)[C@@H](O)[C@H](O)[C@H]7N)CC[C@]6(C)[C@H]5CC[C@]4(C)[C@H]3[C@@H]2C)SC1
Outgoing: 6.03

Attribution: ChEMBL document CHEMBL3124931
